Biological target: fusion protein PRP
readout type: relative cleavage efficiency

OmpT protease variant OmpT D97V (protein) STETLSFTPDNINADISLGTLSGKTKERVYLAEEGGRKVSQLDWKFNNAAIIKGAINWDLMPQISIGAAGWTTLGSRGGNMVDQDWMDSSNPGTWTVESRHPDTQLNYANEFDLNIKGWLLNEPNYRLGLMAGYQESRYSFTARGGSYIYSSEEGFRDDIGSFPNGERAIGYKQRFKMPYIGLTGSYRYEDFELGGTFKYSGWVESSDNDEHYDPGKRITYRSKVKDQNYYSVAVNAGYYVTPNAKVYVEGAWNRVTNKKGNTSLYDHNNNTSDYSKNGAGIENYNFITTAGLKYTF
less than 3.0%
OmpT protease variant OmpT D97R (protein) STETLSFTPDNINADISLGTLSGKTKERVYLAEEGGRKVSQLDWKFNNAAIIKGAINWDLMPQISIGAAGWTTLGSRGGNMVDQDWMDSSNPGTWTRESRHPDTQLNYANEFDLNIKGWLLNEPNYRLGLMAGYQESRYSFTARGGSYIYSSEEGFRDDIGSFPNGERAIGYKQRFKMPYIGLTGSYRYEDFELGGTFKYSGWVESSDNDEHYDPGKRITYRSKVKDQNYYSVAVNAGYYVTPNAKVYVEGAWNRVTNKKGNTSLYDHNNNTSDYSKNGAGIENYNFITTAGLKYTF
less than 3.0%
